Some binders, each annotated with its measured pKd.
Target: T1, recombinant human PD-1-his (Sino biological, #10377-H08H) (human, UniProt Q15116 25-167)
T1 construct: Bought protein; also called Human PD-1-his protein; not shown: his tag
T1 sequence (Q15116 25-167 limits assumed): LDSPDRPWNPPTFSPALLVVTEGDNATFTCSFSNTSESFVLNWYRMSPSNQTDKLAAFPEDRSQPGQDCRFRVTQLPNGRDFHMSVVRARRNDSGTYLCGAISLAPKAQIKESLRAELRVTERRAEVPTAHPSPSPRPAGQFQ
Assay: SPR (Biacore T200), antibody captured, antigen flowed
The meaning of pKd here: minus log10 of the concentration in molar units.

binder	pKd
mouse anti-PD-1 monoclonal antibody C1C5 (antibody, mouse IgG1, kappa, V domains shown, Purified from hybridoma; Constant regions tied only generically to 'mouse antibodies') VH: QIQLVQSGPELKKPGETVKISCKASGYTFTNYGINWVKQAPGKGLKWMGWINTYSGEPTYSDDFKGRFAFSLETSASTAYLQINNLKNEDTSTYFCVRQGDFDYEDAMDYWGQGTSVTVSS VL: DVLMTQSPLSLPVSLGDQASISCRSSQSIVHSNGHIYLEWYLQKPGQSPKLLIYKVSKRFSGVPDRFSGSGSGTDFTLKISRVEAEDLGVYYCFQGSHGTFGGGTKLEIKR	9.06
mouse anti-PD-1 monoclonal antibody D1F2 (antibody, mouse IgG1, kappa, V domains shown, Purified from hybridoma; Constant regions tied only generically to 'mouse antibodies') VH: EVMLVESGGGLVKPGGSLKLSCAASGFTFSSYTMSWVRQTPEKRLEWVATISGGGSNIYYPDSVEGRFTVSRDNARNTLYLHMSSLRSEDTALYYCVLNYAYAMDYWGQGTSVTVSS VL: DIQMTQTTSSLSASLGDRVTISCRASQDISNFLNWYQQKPDGTVKLLIYYTSRLQSGVPSRFSGTGSGTDYSLTISNLEQEDLATYFCQQGSSLPWTFGGGTKLEIKR	8.98
mouse anti-PD-1 monoclonal antibody C1E2 (antibody, mouse IgG1, kappa, V domains shown, Purified from hybridoma; Constant regions tied only generically to 'mouse antibodies') VH: QVQLQQSGAELVRPGTSVKISCKASGYTFTNYWLGWVKQRPGHGLEWIGDIYPGGGYTNYNENFKGKATLTADTSSSTAYMQLSSLTSEDSAVFFCARGYGTNYWYFDVWGAGTTVTVSS VL: SIVMTQTPKFLLVSAGDRVTITCKASQSVSNDVAWYQQKPGQSPKLLIYYAFHRYTGVPDRFTGSGYGTDFTFTISTVQAEDLAVYFCQQDYSSPYTFGGGTKLEIKR	8.54

Request: Bench note: what pKd did mouse anti-PD-1 monoclonal antibody D1A1 (antibody, mouse IgG1, kappa, V domains shown, Purified from hybridoma; Constant regions tied only generically to 'mouse antibodies') VH: EVMLVESGGGLVKPGGSLKLSCAASGFTFSNYAMSWVRQTPEKRLEWVATISGGGGNIYYPDSVKGRFTISRDNARNTLYLQMSSLRSEDTALYYCASPYANYVWYLDVWGAGTTVTVSS VL: DIQMTQTTSSLSASLGDRVTISCRASQDISNYLNWYQQKPDGTVKLLIYYTSRLHSGVPSRFSGSGSGTDFSLTISNLEEEDIATYFCQQSNALPWTFGGGTKLEIKR show?
Response: 8.69
